Source of measurements: patent US8153624B2

Target: Human FXR (Homo sapiens)
Sequence (Q96RI1 1-486): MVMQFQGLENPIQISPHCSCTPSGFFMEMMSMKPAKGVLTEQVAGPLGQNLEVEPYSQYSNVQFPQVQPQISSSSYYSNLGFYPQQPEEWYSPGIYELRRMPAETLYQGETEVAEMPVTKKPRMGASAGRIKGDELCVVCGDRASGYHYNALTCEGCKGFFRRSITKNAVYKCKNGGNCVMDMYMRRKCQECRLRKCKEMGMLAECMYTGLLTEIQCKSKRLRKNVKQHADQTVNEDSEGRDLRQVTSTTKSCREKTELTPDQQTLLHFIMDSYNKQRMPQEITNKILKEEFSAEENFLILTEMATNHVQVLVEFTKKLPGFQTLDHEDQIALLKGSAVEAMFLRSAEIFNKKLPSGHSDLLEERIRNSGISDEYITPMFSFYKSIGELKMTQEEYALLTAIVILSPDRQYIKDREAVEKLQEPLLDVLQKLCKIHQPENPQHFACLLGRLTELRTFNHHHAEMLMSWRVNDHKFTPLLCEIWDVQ
Assay: Human FXR/FXR-Response Element Luciferase Reporter Cotransfection Assay
Protocol: Human FXR/FXR-Response Element Luciferase Reporter Cotransfection Assay Compounds of the present invention are tested using the Human FXR/FXR-Response Element Luciferase Reporter Cotransfection Assay. The assay is performed essentially as described in J. Biological Chem. 2006, 281 (52), 39831-39838, except that 10 μg total DNA per million cells is used. One of skill in the art is able to perform this assay without undue experimentation.

Chem smiles	Tested on	Unit descriptor	EC50
O=C(O)c1ccc(N2CCC(OCc3c(-c4c(Cl)cccc4Cl)noc3C3CC3)CC2)cc1	Human FXR (Homo sapiens)	nM	220
